# experimental target: Mt-GuaB2 (Mycobacterium tuberculosis, UniProt P9WKI7)
# Sequence (P9WKI7 whole entry, looked up): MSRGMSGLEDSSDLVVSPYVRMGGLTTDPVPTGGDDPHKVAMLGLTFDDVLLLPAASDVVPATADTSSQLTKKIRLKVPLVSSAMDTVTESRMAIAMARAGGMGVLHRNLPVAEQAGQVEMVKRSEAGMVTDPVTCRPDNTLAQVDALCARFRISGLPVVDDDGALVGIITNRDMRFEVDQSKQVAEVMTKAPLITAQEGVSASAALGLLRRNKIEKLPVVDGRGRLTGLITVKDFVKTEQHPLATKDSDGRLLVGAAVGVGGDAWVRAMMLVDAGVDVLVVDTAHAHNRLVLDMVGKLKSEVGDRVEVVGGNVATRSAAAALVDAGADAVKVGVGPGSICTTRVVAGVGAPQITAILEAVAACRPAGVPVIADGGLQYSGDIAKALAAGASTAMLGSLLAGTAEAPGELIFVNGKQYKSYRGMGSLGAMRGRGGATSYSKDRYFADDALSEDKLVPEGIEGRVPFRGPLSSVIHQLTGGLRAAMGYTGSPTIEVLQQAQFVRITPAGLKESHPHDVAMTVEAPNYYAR
# run description: Mt-GuaB2 spectrophotometric assay (NADH formation at 340 nm), inhibitor kinetics
# Type: biochemical
# condition details: Table 2; varied IMP, fixed saturating NAD+ 2.8 mM
Classification field: Condition met = IMP αK i at or over 30 µM; Condition not met = IMP αK i under 30 µM.

Solved cases (3 shown):
O=C(Nc1nnc(-c2cccs2)o1)c1nc2ccccc2s1    Condition not met
O=C(Nc1nnc(-c2ccccc2Cl)o1)c1nc2ccccc2s1    Condition met
O=C(Nc1nnc(-c2ccc(Cl)s2)o1)c1nc2ccccc2s1    Condition not met

Please check the record "COc1cc2ccccc2cc1C(=O)Nc1nnc(-c2cc(C)ccc2C)o1" and state if its IMP αK i is at or above 30 µM.
Condition met

Please check the record "COc1cc2ccccc2cc1C(=O)Nc1nnc(-c2ccc(F)cc2)o1" and state if its IMP αK i is at or above 30 µM.
Condition met

Please check the record "O=C(Nc1nnc(-c2ccc(Br)cc2)o1)c1sc2ccccc2c1Cl" and state if its IMP αK i is at or above 30 µM.
Condition met

Please check the record "Cc1ccc(C)c(-c2nnc(NC(=O)c3cccc4ccccc34)o2)c1" and state if its IMP αK i is at or above 30 µM.
Condition not met

Please check the record "COc1ccccc1-c1nnc(NC(=O)c2sc3ccccc3c2Cl)o1" and state if its IMP αK i is at or above 30 µM.
Condition not met

Please check the record "Cc1ccc(-c2nnc(NC(=O)c3nc4ccccc4s3)o2)c(C)c1" and state if its IMP αK i is at or above 30 µM.
Condition met

Please check the record Cc1ccc(C)c(-c2nnc(NC(=O)C3COc4ccccc4O3)o2)c1 (stereo not shown) and state if its IMP αK i is at or above 30 µM.
Condition met

Please check the record "O=C(CS(=O)(=O)c1ccccc1)Nc1nc(-c2ccc3c(c2)CCCC3)cs1" and state if its IMP αK i is at or above 30 µM.
Condition met

Please check the record "Cc1ccc(C)c(-c2nnc(NC(=O)COc3ccccc3)o2)c1" and state if its IMP αK i is at or above 30 µM.
Condition met

Please check the record "CCOc1cc(-c2nnc(NC(=O)c3cc4ccccc4cc3OC)o2)cc(OCC)c1OCC" and state if its IMP αK i is at or above 30 µM.
Condition not met

----------
# experimental target: Mt-GuaB2 (Mycobacterium tuberculosis, UniProt P9WKI7)
# run description: Mt-GuaB2 spectrophotometric assay (NADH formation at 340 nm), inhibitor kinetics
# Type: biochemical
# condition details: Table 2; varied IMP, fixed saturating NAD+ 2.8 mM
property: IMP αK i (µM)
Give bare numbers, in µM.

O=C(Nc1nnc(-c2ccccc2)o1)c1cc(-c2cccs2)nc2ccccc12 [F1374-0885]    19.0
Cc1ccc(-c2nnc(NC(=O)COc3ccccc3)o2)c(C)c1 [F2518-0274]    765.4

Continue with the compound presented below.
compound CC(C)c1ccc(OCC(=O)Nc2nccs2)cc1 [F1685-0077] , IMP αK i observed: 229.3
